assay name: in vivo
measurement conditions: female, C57BL/6, mouse, plasma, iv, 1 mg/kg
test readout: Vd (L/kg)
Please respond with the number in L/kg and leave the unit unwritten.

Entry under test: N=C(N)c1ccc(OCCCCCOc2ccc(C(=N)N)cc2)cc1 [Pentamidine, pentamidine, reference compound] . Its Vd was 3.45

----------
assay name: Plasma protein binding (equilibrium dialysis)
Type: in vitro ADME
measurement conditions: dog plasma
test readout: fraction unbound
# answer = number (no unit)

Entry under test: N=C(N)c1ccc(OCCN(CCOc2ccc(C(=N)N)cc2)c2ccccc2)cc1 . Its fraction unbound was 0.126

----------
assay name: in vivo
measurement conditions: female, C57BL/6, mouse, in vivo, iv, 1 mg/kg
test readout: C0 (ng/mL)
Please respond with the number in ng/mL and leave the unit unwritten.

Entry under test: N=C(N)c1ccc(OCCN(CCOc2ccc(C(=N)N)cc2)c2ccccc2)cc1 [Analog P35] . Its C0 was 238

----------
Test system: LPS from E. coli EH100
assay name: BODIPY-Cadaverine LPS displacement assay
Format: binding
measurement conditions: BODIPY-cadaverine displacement from E. coli EH100 LPS
test readout: LPS Displacement (EC50, μg/mL) (µg/mL)
Please respond with the number in µg/mL and leave the unit unwritten.

1) C[C@@H](CCCOc1ccc(C(=N)N)cc1)COc1ccc(C(=N)N)cc1 [Analog P22R]	26.02
2) N=C(N)c1ccc(OCCC[C@H]2CCCN(c3ccc(C(=N)N)cc3)C2)cc1 [Analog P24B]	149.5

Entry under test: N=C(N)c1ccc(OCCCCCOc2ccc(C(=N)N)nc2)cn1 . Its LPS Displacement (EC50, μg/mL) was 60.19

Entry under test: N=C(N)c1ccc(OCCC2(CCOc3ccc(C(=N)N)cc3)CCC(C(=O)O)CC2)cc1 (stereo not shown) . Its LPS Displacement (EC50, μg/mL) was 119.4

Entry under test: N=C(N)c1ccc(OCCN(CCOc2ccc(C(=N)N)cc2)c2ccccc2)cc1 . Its LPS Displacement (EC50, μg/mL) was 87.21

Entry under test: N=C(N)c1ccc(OCCC[C@@H]2CCCN(c3ccc(C(=N)N)cc3)C2)cc1 [Analog P24A] . Its LPS Displacement (EC50, μg/mL) was 91.74

Entry under test: CC(C)(CCOc1ccc(C(=N)N)cc1)CCOc1ccc(C(=N)N)cc1 . Its LPS Displacement (EC50, μg/mL) was 62.47

----------
assay name: in vitro
measurement conditions: human, Phospholipidosis AC50 (μM)
test readout: AC50 at 72 h

1) N=C(N)c1ccc(OCCN(CCOc2ccc(C(=N)N)cc2)c2ccccc2)cc1 [Analog P35]	43.1 µM

Entry under test: N=C(N)c1ccc(OCCCCCOc2ccc(C(=N)N)cc2)cc1 [Pentamidine, pentamidine, reference compound] . Its AC50 at 72 h was > 150 µM

----------
assay name: in vivo
measurement conditions: female, C57BL/6, mouse, plasma, iv, 1 mg/kg
test readout: AUC(0-inf) (ng·h/mL)
Please respond with the number in ng·h/mL and leave the unit unwritten.

Entry under test: N=C(N)c1ccc(OCCCCCOc2ccc(C(=N)N)cc2)cc1 [Pentamidine, pentamidine, reference compound] . Its AUC(0-inf) was 119

----------
assay name: in vivo
measurement conditions: female, C57BL/6, mouse, plasma, iv, 1 mg/kg
test readout: MRT last (min)
Please respond with the number in min and leave the unit unwritten.

Entry under test: N=C(N)c1ccc(OCCCCCOc2ccc(C(=N)N)cc2)cc1 [Pentamidine, pentamidine, reference compound] . Its MRT last was 13.7
